- target_of_assay: Acetylcholinesterase (Electrophorus electricus) (UniProt O42275)
- Sequence (O42275 24-633 limits assumed): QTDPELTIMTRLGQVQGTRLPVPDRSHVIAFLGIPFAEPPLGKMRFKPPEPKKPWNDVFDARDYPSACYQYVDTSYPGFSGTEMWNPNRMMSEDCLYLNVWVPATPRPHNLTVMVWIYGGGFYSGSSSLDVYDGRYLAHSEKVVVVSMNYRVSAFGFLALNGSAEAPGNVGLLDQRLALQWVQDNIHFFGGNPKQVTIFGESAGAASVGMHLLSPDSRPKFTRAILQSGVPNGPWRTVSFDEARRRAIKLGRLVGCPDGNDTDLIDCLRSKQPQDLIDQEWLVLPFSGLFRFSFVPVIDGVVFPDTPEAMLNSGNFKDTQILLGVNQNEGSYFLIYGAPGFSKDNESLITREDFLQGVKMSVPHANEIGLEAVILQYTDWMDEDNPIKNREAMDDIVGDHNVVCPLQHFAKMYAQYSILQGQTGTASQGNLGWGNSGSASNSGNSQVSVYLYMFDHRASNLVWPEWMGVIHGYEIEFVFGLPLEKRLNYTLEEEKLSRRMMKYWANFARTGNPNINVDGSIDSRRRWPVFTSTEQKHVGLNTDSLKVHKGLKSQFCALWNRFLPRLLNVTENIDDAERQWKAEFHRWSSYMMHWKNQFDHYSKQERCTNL
- test_method_notes: The compound was tested in vitro for the inhibition of acetylcholinesterase (AChE) isolated from electric eel at 10e-5 M
endpoint_label: inhibition (%)
Entry rule: numbers only, all in %.

Worked examples follow.
>>> df
                                   compound                           target_of_assay  unit_abbreviation  data_value
0  CC(C)OC(=O)c1cc2c(c[n+]1C)[nH]c1ccccc12.[I-]  Acetylcholinesterase (Electrophorus electricus) (UniProt O42275)                  %          62
1  CCCOC(=O)c1cc2c(c[n+]1C)[nH]c1ccccc12.[I-]  Acetylcholinesterase (Electrophorus electricus) (UniProt O42275)                  %        80.1
2  CNC(=O)c1cc2c(c[n+]1C)[nH]c1ccccc12.[I-]  Acetylcholinesterase (Electrophorus electricus) (UniProt O42275)                  %         7.4
3       COC(=O)c1cc2c(c[n+]1C)[nH]c1ccccc12  Acetylcholinesterase (Electrophorus electricus) (UniProt O42275)                  %        43.1

In plain terms, `CN(C)C(=O)Oc1ccc[n+](C)c1` has a documented inhibition of 93

In plain terms, `CCCCOC(=O)c1cc2c(c[n+]1C)[nH]c1ccccc12.[I-]` has a documented inhibition of 88

In plain terms, `CCOC(=O)c1cc2c(c[n+]1C)[nH]c1ccccc12.[I-]` has a documented inhibition of 60.9

In plain terms, `CCOC(=O)c1cc2cc[nH]c2c[n+]1C.[I-]` has a documented inhibition of 17

In plain terms, C[n+]1ccc2c(c1)[nH]c1ccccc12 [NORMELINONINE F] has a documented inhibition of 41.2

Cited source for all entries: ChEMBL document CHEMBL1127171
